measured.metric: melting point

{"columns": ["chemical.structure", "measured.metric", "measurement"],
 "data": [
  ["CNC(=O)c1nc(Nc2ccc3[nH]ncc3c2)c2ccccc2n1", "melting point", "283 to 286 °C"],
  ["O=C(Nc1ccncc1)c1nc(Nc2ccc3[nH]ncc3c2)c2ccccc2n1", "melting point", "295 to 298 °C"],
  ["O=C(Nc1cnc2ccccc2c1)c1nc(Nc2ccc3[nH]ncc3c2)c2ccccc2n1", "melting point", "249 to 252 °C"],
  ["O=C(Nc1ccccn1)c1nc(Nc2ccc3[nH]ncc3c2)c2ccccc2n1", "melting point", "297 to 300 °C"],
  ["O=C(NC1CCCCC1)c1nc(Nc2ccc3[nH]ncc3c2)c2ccccc2n1", "melting point", "215 to 217 °C"]
]}

For each listed entry, give its melting point.
1. O=C(NC1CCCC1)c1nc(Nc2ccc3[nH]ncc3c2)c2ccccc2n1
2. Cc1nc(Nc2ccc3[nH]ncc3c2)c2ccccc2n1

Given back:
["237 to 239 °C", "282 to 288 °C"]

Asked: So what's the measured melting point for this one? COc1ccc(NC(=O)c2nc(Nc3ccc4[nH]ncc4c3)c3ccccc3n2)cc1
Given back: 210 to 213 °C
